The measured values listed here are drawn from ChEMBL document CHEMBL1122376.

System: Eimeria tenella
Test: In vivo anti-coccidial activity expressed as number of the chicks cleared of Eimeria tenella lesions out of a group of five, at 50 ppm in the diet.
Type: functional
Measurement Kind: Activity

1) OC[C@H]1OC(n2ncc3c(SC/C=C/C=C/c4ccccc4)ncnc32)[C@H](O)[C@@H]1O (stereo partly specified) : 5
2) OC[C@H]1OC(n2ncc3c(SC/C=C\c4ccccc4)ncnc32)[C@H](O)[C@@H]1O (stereo partly specified) : 0
3) OC[C@H]1OC(n2ncc3c(SC/C=C/c4ccccc4)ncnc32)[C@H](O)[C@@H]1O (stereo partly specified) : 5
4) C=CCSc1ncnc2c1cnn2C1O[C@H](CO)[C@@H](O)[C@H]1O (stereo partly specified) : 2
5) CC(=O)OC[C@H]1O[C@@H](n2ncc3c(SC/C=C/c4ccccc4)ncnc32)[C@H](OC(C)=O)[C@@H]1OC(C)=O : 5
6) OC[C@H]1OC(n2ncc3c(SC/C=C/c4cccc(Br)c4)ncnc32)[C@H](O)[C@@H]1O (stereo partly specified) : 4
